biological target: T1, human transferrin receptor (recombinant, for surface plasmon resonance) (human, UniProt P02786 89-760); assay: SPR 25C
T1 construct: also called huTfR; human transferrin receptor-biotinylated
T1 sequence (P02786 89-760 limits assumed): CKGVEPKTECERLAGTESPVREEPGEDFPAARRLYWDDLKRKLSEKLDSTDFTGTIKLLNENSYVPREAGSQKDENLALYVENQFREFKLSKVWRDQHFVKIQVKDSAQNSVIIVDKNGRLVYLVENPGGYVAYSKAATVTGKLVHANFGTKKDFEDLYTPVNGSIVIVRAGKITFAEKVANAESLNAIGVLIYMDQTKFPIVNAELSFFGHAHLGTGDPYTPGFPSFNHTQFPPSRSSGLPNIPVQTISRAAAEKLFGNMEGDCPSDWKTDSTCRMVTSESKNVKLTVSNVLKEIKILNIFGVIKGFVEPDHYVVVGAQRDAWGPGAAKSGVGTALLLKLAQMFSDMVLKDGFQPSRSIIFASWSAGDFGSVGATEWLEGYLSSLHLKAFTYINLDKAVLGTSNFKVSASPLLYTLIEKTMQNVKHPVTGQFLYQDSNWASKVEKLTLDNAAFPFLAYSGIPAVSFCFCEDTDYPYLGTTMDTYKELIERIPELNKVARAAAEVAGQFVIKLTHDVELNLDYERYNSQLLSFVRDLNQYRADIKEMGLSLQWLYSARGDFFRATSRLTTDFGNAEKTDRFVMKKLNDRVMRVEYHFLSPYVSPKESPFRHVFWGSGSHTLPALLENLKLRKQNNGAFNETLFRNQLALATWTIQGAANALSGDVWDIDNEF
QUANTITY: koff (s⁻¹)

{"columns": ["BINDER", "UNIT_OF_MEASURE", "TEST_VALUE"],
 "data": [
  ["2/99 VH18/VL5 (antibody, V domains shown) VH: QVQLQESGPGLVKPSQTLSLTCTVSGFSLSSYAMSWIRQHPGKGLEWIGYIWSGGSTDYAPSLKSRVTISVDTSKNQFSLKLSSVTAADTAVYYCARRYGTSYPDYGDANGFDPWGQGTLVTVSS VL: DIQMTQSPSSLSASVGDRVTITCRASQSISSYLSWYQQKPGKAPKLLIYRASTLASGVPSRFSGSGSGTDFTLTISSLQPEDFATYYCQQSYSSSNVDNTFGGGTKVEIK", "s⁻¹", 0.00349],
  ["2/99 VH22/VL1 (antibody, V domains shown) VH: QSMQESGPGLVKPSQTLSLTCTVSGFSLSSYAMSWVRQHPGKGLEWIGYIWSGGSTDYASWAKSRVTISVDTSKNQVSLKLSSVTAADTAVYYCARRYGTSYPDYGDANGFDPWGQGTLVTVSS VL: DIQMTQSPSSLSASVGDRVTITCRASQSISSYLNWYQQKPGKAPKLLIYRASSLQSGVPSRFSGSGSGTDFTLTISSLQPEDFATYYCQQSYSSSNVDNTFGGGTKVEIK", "s⁻¹", 0.00578],
  ["2/99 VH17/VL8 (antibody, V domains shown) VH: QQLQESGPGLVKPSETLSLTCTVSGFSLSSYAMSWVRQPPGKGLEWIGYIWSGGSTDYNPSLKSRVTISKDTSKNQVSLKLSSVTAADTAVYYCARRYGTSYPDYGDANGFDPWGPGTLVTVSS VL: AYQLTQSPSSLSASVGDRVTITCRASQSISSYLSWYQQKPGKAPKLLIYRASTLASGVPSRFSGSGSGTDFTLTISSLQPEDFATYYCQQSYSSSNVDNTFGGGTKVEIK", "s⁻¹", 0.00111],
  ["2/99 VH1/VL7 (antibody, V domains shown) VH: VQLVETGGGLIQPGGSLRLSCAASGFSLSSYAMSWVRQAPGKGLEWVGYIWSGGSTDYADSVKGRFTISRDNSKNTLYLQMNSLRAEDTAVYYCARRYGTSYPDYGDANGFDPWGQGTLVTVSS VL: AIQLTQSPSSLSASVGDRVTITCRASQSISSYLAWYQQKPGKAPKLLIYRASTLASGVPSRFSGSGSGTDFTLTISSLQPEDFATYYCQQSYSSSNVDNTFGGGTKVEIK", "s⁻¹", 0.00733],
  ["2/99 VH23-DANG/VL10 (antibody, V domains shown) VH: QSMQESGPGLVKPSQTLSLTCTVSGFSLSSYAMSWIRQHPGKGLEWIGYIWSGGSTDYASWAKSRVTISKTSTTVSLKLSSVTAADTAVYYCARRYGTSYPDYGDANGFDPWGQGTLVTVSS VL: DIQMTQSPSSLSASVGDRVTITCRASQSISSYLSWYQQKPGKAPKLLIYRASTLASGVPSRFSGSRSGTDFTLTISSLQPEDFATYYCQQSYSSSNVDNTFGGGTKVEIK", "s⁻¹", 0.0012]
]}
